- Tested on: Platelet-derived growth factor receptor alpha (Homo sapiens), P16234 [T674I]
- Sequence (P16234 whole entry T674I): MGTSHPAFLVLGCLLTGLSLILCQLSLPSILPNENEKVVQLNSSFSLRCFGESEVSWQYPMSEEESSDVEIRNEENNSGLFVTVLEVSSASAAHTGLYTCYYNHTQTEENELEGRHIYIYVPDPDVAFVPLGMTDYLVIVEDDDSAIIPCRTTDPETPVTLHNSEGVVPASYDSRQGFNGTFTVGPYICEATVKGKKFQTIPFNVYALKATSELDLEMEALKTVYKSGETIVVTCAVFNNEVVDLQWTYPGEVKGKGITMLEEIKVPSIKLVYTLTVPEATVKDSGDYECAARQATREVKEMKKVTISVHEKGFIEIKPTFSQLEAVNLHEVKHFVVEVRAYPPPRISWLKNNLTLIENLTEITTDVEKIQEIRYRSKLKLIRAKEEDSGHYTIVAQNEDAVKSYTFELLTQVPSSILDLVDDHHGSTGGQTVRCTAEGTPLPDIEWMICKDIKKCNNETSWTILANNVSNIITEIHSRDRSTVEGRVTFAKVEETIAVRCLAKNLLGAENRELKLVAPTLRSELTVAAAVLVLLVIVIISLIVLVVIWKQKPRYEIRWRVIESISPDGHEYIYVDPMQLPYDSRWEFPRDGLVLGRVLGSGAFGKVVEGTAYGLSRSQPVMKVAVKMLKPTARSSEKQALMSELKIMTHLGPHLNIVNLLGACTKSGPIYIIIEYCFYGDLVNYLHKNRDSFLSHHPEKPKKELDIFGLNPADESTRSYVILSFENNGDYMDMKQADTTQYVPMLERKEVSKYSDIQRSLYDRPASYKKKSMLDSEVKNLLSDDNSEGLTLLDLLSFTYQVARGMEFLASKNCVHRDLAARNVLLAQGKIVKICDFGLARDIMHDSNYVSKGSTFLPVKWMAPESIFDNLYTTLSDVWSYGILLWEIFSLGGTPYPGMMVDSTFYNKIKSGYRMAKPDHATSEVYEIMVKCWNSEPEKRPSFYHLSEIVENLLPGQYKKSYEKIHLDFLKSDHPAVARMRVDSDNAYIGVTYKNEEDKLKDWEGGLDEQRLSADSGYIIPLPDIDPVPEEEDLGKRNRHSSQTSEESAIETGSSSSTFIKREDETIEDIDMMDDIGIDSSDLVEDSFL
- conditionNotes: at 1 µM
Entries get a class label from measured inhibition. See ranges: lo: < 7%; med: ≥ 7% and < 30%; hi: ≥ 30%

structureAsSmiles: Cc1c2ccc(N(C)c3ccnc(Nc4cccc(S(N)(=O)=O)c4)n3)cc2nn1C
assignedClass: hi
--
structureAsSmiles: CN(C)CCNC(=O)Nc1ccc(N(C)c2ccnc(Nc3ccc(CS(C)(=O)=O)cc3)n2)cc1
assignedClass: hi
--
structureAsSmiles: Cc1cc(O)cc(C)c1/C=C/c1cncc(C(N)=O)c1
assignedClass: lo
--
structureAsSmiles: CS(=O)(=O)Nc1ccc(-c2ccc3c(NC(=O)C4CC4)n[nH]c3c2)cc1
assignedClass: lo
--
structureAsSmiles: Cc1nnc(-c2cccc(-c3ccc(C(=O)NCC4CC4)cc3)c2)o1
assignedClass: med

Where would COc1ccccc1-c1cc(/C=C2\C(=O)Nc3ncc(Br)cc32)cc(Br)c1O land among the classes by reported inhibition?
med

Category of CC(C)c1ccc(-c2cc(-c3c[nH]nc3-c3ccccn3)ccn2)cc1 , please.
lo

====

For each entry below, report its inhibition value.
- testedSystem: Muscle, skeletal receptor tyrosine-protein kinase (Homo sapiens) (UniProt O15146)
- Sequence (O15146 whole entry): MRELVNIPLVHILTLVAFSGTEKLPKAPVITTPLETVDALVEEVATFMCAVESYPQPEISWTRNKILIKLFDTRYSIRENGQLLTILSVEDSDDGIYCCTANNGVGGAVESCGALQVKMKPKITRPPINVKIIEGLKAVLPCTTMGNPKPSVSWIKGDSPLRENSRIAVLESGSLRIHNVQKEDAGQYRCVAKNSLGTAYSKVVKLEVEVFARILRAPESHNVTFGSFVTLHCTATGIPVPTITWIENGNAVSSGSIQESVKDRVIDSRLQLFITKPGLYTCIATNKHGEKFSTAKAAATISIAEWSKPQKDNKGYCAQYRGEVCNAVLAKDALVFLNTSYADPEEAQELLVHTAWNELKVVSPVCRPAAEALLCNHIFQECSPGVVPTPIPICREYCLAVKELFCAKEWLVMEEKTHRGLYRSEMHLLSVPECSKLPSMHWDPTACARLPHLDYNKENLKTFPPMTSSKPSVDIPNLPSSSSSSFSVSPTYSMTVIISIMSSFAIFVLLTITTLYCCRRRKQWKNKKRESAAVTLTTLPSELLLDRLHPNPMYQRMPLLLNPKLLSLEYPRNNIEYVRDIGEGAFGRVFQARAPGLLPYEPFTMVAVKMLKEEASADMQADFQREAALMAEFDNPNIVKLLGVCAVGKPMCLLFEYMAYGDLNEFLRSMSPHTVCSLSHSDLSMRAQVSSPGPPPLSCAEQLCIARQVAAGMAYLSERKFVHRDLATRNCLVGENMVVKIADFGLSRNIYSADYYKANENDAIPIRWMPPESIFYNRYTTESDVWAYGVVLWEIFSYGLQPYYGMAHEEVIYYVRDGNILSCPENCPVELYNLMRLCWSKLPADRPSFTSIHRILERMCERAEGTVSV
- conditionNotes: at 1 µM
Numbers only, in %.

structureAsSmiles: COc1ccccc1-c1cc(/C=C2\C(=O)Nc3ncc(Br)cc32)cc(Br)c1O
testedSystem: Muscle, skeletal receptor tyrosine-protein kinase (Homo sapiens) (UniProt O15146);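 further: reported value is the mean percent inhibition of MuSK kinase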
uom: %
inhibition: 5.9

For every listed record, write down its inhibition.
1. O=C(O[C@H]1CN[C@H](C#Cc2cc3ncnc(Nc4ccc(OCc5cccc(F)c5)c(Cl)c4)c3s2)C1)N1CCOCC1
2. CNC(=O)c1sc(-n2cnc3cc(OC)c(OC)cc32)cc1OCc1ccccc1C(F)(F)F

1. 2.35
2. 2.82

For each entry beneath this line, provide reported inhibition.
1. COc1cc(N2CCN(C(C)C)CC2)ccc1Nc1nc(Nc2cccc(F)c2C(=O)O)c2cc[nH]c2n1
2. COc1cccc(Nc2nccc(-c3cnn4ncccc34)n2)c1
3. CNC(=O)c1cncc(/C=C/c2ccccc2C)c1
4. COc1cc(Nc2ncc(-c3ccccc3)o2)cc(OC)c1
5. Cc1nnc(-c2cccc(-c3ccc(C(=O)NCC4CC4)cc3)c2)o1
6. CCOc1ccc2c(-c3ccnc(Nc4cc(OC)cc(C(F)(F)F)c4)n3)cnn2n1
7. c1ccc(-c2n[nH]cc2-c2ccnc(-c3ccc(OCCn4ccnc4)cc3)c2)nc1

1: 10.5; 2: 25.3; 3: 3.97; 4: 4.72; 5: 6.37; 6: 5.37; 7: 4.35

====

- testedSystem: Serine/threonine-protein kinase BRSK2 (Homo sapiens) (UniProt Q8IWQ3);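 further: mean kinase inhibition reported within the GSK PKIS dataset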
- Sequence (Q8IWQ3 whole entry): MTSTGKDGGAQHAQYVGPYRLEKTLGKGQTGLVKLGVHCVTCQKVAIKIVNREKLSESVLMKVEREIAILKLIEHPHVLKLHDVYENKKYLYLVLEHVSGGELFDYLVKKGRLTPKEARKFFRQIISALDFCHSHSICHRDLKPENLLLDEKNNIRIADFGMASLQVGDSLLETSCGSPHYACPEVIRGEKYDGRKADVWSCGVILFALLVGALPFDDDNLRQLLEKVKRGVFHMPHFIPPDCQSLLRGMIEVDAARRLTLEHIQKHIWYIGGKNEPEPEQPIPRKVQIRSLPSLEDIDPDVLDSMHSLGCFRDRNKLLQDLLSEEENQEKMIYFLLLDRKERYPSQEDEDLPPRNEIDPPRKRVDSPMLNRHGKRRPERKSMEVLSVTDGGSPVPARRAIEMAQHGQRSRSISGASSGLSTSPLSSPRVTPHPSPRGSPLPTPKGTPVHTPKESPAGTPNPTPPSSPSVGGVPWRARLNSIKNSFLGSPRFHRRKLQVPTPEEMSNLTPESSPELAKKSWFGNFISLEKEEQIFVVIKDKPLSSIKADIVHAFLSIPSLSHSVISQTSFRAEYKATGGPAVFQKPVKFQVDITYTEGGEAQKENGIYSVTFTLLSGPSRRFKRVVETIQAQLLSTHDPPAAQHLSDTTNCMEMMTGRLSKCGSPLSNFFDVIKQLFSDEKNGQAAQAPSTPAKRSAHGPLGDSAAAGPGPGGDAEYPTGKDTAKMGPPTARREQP
- conditionNotes: at 1 µM
So I've got a bunch of compounds here, and I need their inhibition values.
Answers are plain numbers, in %.

structureAsSmiles: O=C(O[C@H]1CN[C@H](C#Cc2cc3ncnc(Nc4ccc5c(ccn5Cc5cc(F)ccc5F)c4)c3s2)C1)N1CCOCC1
uom: %
reportedMeasurement: 0.73
//
structureAsSmiles: COc1cc2c(cc1Nc1nc(Nc3cccc(F)c3C(N)=O)c3cc[nH]c3n1)N(C(=O)CN1CCN(C(C)C)CC1)CC2
uom: %
reportedMeasurement: -0.2
//
structureAsSmiles: CN(c1ccc(NC(=O)NCCN2CCOCC2)cc1)c1ccnc(Nc2ccc(CS(C)(=O)=O)cc2)n1
uom: %
reportedMeasurement: 5.48

Consider the compound CS(=O)(=O)Nc1ccc(-c2cc(-c3ccccc3)cc(C(N)=O)c2N)cc1 and give its recorded inhibition.
2.21
